log Ppara by entry:
conditions: PAMPA
Metric: log Ppara

[[record]]
molecule = "CN1CCN(C2=Nc3cc(Cl)ccc3Nc3ccccc32)CC1 [Clozapine]"
metric = "log Ppara"
quantitative_result = "−5.74"

[[record]]
molecule = "CN1CCN(CCCN2c3ccccc3Sc3ccc(C(F)(F)F)cc32)CC1 [Trifluoperazine]"
metric = "log Ppara"
quantitative_result = "−5.94"

[[record]]
molecule = "Cn1cnc2c1c(=O)[nH]c(=O)n2C [Theobromine]"
metric = "log Ppara"
quantitative_result = "−6.94"

[[record]]
molecule = "CN1CCN2c3ncccc3Cc3ccccc3C2C1 (centres unmarked) [Mirtazapine]"
metric = "log Ppara"
quantitative_result = "−5.87"

[[record]]
molecule = "CNS(=O)(=O)Cc1ccc2[nH]cc(CCN(C)C)c2c1 [Sumatriptan]"
metric = "log Ppara"
quantitative_result = "−7.51"


Values were extracted from paper PMC3034772.
